readout-kind: melting point

O=[N+]([O-])c1ccc2c(c1)OC(CO)O2 (stereo not given) ... 80 to 82 °C
CCCc1c(OCCCCCc2c(Cl)c(Cl)c(Cl)c(OC)c2OC)ccc(C(=O)O)c1O ... 148 to 150 °C
O=C1c2cc(Cl)ccc2-c2ccccc2CN1CCBr ... 94 to 97 °C

Q. Item O=C(Nc1ccccc1)N1C(=O)[C@H](O)[C@@H]1c1ccccc1 has what recorded melting point?
A. 197 to 200 °C

Q. Which melting point is listed for N#CCNC(=O)c1nn(C2CCCCO2)cc1NC(=O)c1ccccn1 (stereo not given) ?
A. 213 to 214 °C

Q. # input molecule: COn1cnc2c(N)nc3ccccc3c21 ; wanted: its melting point
A. 238 to 240 °C

Q. Recorded melting point of CCCc1nc2c(N)nc3cc(OCCOCCNC(=O)OC(C)(C)C)ccc3c2s1 , please.
A. 111 to 113 °C

Q. For the molecule N#Cc1ccc(CCC(=O)c2c(O)c3cccnc3n(-c3ccccc3)c2=O)cc1 , what melting point is on record?
A. 248 to 249 °C

Q. Item under review: COC(=O)c1ccc(O)c(C23CC4CC(CC(C4)C2)C3)c1 . Reported melting point?
A. 183 to 184 °C

Q. Would you kindly share the measured melting point for Cc1cccc(C)c1-c1cc(Cl)cc2c1OC(CN1CCCCC1)C2 (stereo not given) ?
A. > 235 °C
